src = patent US6720346B2

- TARGET SYSTEM: CDK2/cyclin A (Homo sapiens, UniProt P24941)
- Construct: made in house; host or cells: CDK2: insect cells (baculovirus); cyclin A: E. coli
- ASSAY: Inhibition of CDK2/cyclin A retinoblastoma kinase activity (Ki; % inhibition)
- Format: biochemical
- EXPERIMENTAL PARAMETERS: 0.03 μM compound
Exercise: for every item that follows, state its recorded CDK2 % Inhibition at 0.03 μM.
Give the value in % but do not write % after it.

Task: // lookup CDK2 % Inhibition at 0.03 μM for CC(C)(C)C1CCC(NC(=O)c2ccc(Nc3nc(N)c(C(=O)c4c(F)cccc4F)s3)cc2)CC1 (stereo not shown)
Result: −23

Task: // query: Cc1ccc(NC(=O)c2ccc(Nc3nc(N)c(C(=O)c4c(F)cccc4F)s3)cc2)c(F)c1
Result: −30

Task: // query: Nc1nc(Nc2ccc(C(=O)NCC(O)CO)cc2)sc1C(=O)c1c(F)cccc1F (stereo not shown)
Result: −2

Task: // query: CSCCC(CO)NC(=O)c1ccc(Nc2nc(N)c(C(=O)c3c(F)cccc3F)s2)cc1 (stereo not shown)
Result: 19

====

Exercise: for every item that follows, state its recorded HCT-116 % Inhibition at 0.25 μM.
- Tested on: HCT-116 cell line
- ASSAY: Inhibition of cell growth, MTT tetrazolium salt assay
- Format: cell-based
- EXPERIMENTAL PARAMETERS: HCT-116 cells, 0.25 μM compound
Give the value in % but do not write % after it.

Task: // lookup HCT-116 % Inhibition at 0.25 μM for CN(C)CCN1CCN(C(=O)c2ccc(Nc3nc(N)c(C(=O)c4c(F)cccc4F)s3)cc2)CC1
Result: 47

Task: // query: COc1ccc(NC(=O)c2ccc(Nc3nc(N)c(C(=O)c4c(F)cccc4F)s3)cc2)cc1F
Result: 53

Task: // query: Cc1ccc(CNC(=O)c2ccc(Nc3nc(N)c(C(=O)c4c(F)cccc4F)s3)cc2)cc1Cl
Result: 63

Task: // query: Nc1nc(Nc2ccc(C(=O)NCCc3c[nH]c4ccccc34)cc2)sc1C(=O)c1c(F)cccc1F
Result: 49

Task: // query: Nc1nc(Nc2ccc(C(=O)NCc3cc(Cl)ccc3Cl)cc2)sc1C(=O)c1c(F)cccc1F
Result: 60

Task: // query: Nc1nc(Nc2ccc(C(=O)NCCN3CCNC3=O)cc2)sc1C(=O)c1c(F)cccc1F
Result: 44

Task: // query: COc1ccc(CCNC(=O)c2ccc(Nc3nc(N)c(C(=O)c4c(F)cccc4F)s3)cc2)cc1
Result: 58

Task: // query: Nc1nc(Nc2ccc(C(=O)NCc3ccccc3C(F)(F)F)cc2)sc1C(=O)c1c(F)cccc1F
Result: 65

Task: // query: Nc1nc(Nc2ccc(C(=O)N[C@H](CO)Cc3ccccc3)cc2)sc1C(=O)c1c(F)cccc1F
Result: 48

Task: // query: Nc1nc(Nc2ccc(C(=O)NCc3ccc(F)cc3F)cc2)sc1C(=O)c1c(F)cccc1F
Result: 79

Task: // query: CC(CCCC(C)(C)O)NC(=O)c1ccc(Nc2nc(N)c(C(=O)c3c(F)cccc3F)s2)cc1 (stereo not drawn)
Result: 49

Task: // query: CN(CCC#N)C(=O)c1ccc(Nc2nc(N)c(C(=O)c3c(F)cccc3F)s2)cc1
Result: 43

Task: // query: Nc1nc(Nc2ccc(C(=O)NC3c4ccccc4CC3O)cc2)sc1C(=O)c1c(F)cccc1F (stereo not drawn)
Result: 64

Task: // query: Nc1nc(Nc2ccc(C(=O)Nc3ccc(CCO)cc3)cc2)sc1C(=O)c1c(F)cccc1F
Result: 89

Task: // query: CCN(CC)CCCN(C)C(=O)c1ccc(Nc2nc(N)c(C(=O)c3c(F)cccc3F)s2)cc1
Result: 59

Task: // query: CCCCN(CC)CCNC(=O)c1ccc(Nc2nc(N)c(C(=O)c3c(F)cccc3F)s2)cc1
Result: 93

Task: // query: CC(C)(C)c1ccc(CNC(=O)c2ccc(Nc3nc(N)c(C(=O)c4c(F)cccc4F)s3)cc2)cc1
Result: 45

Task: // query: CC1CCCCN1CCCNC(=O)c1ccc(Nc2nc(N)c(C(=O)c3c(F)cccc3F)s2)cc1 (stereo not drawn)
Result: 72

====

Exercise: for every item that follows, state its recorded CDK2 % Inhibition at 0.03 μM.
- TARGET SYSTEM: CDK2/cyclin A (Homo sapiens)
- Construct: made in house; host or cells: CDK2: insect cells (baculovirus); cyclin A: E. coli
- ASSAY: Inhibition of CDK2/cyclin A retinoblastoma kinase activity (Ki; % inhibition)
- Format: biochemical
- EXPERIMENTAL PARAMETERS: 0.03 μM compound
I'd appreciate it if you included the unit after the number.

Task: // lookup CDK2 % Inhibition at 0.03 μM for Cc1ccc(CNC(=O)c2ccc(Nc3nc(N)c(C(=O)c4c(F)cccc4F)s3)cc2)o1 [Example G250]
Result: 39%

Task: // query: Nc1nc(Nc2ccc(C(=O)NCc3cccc(C(F)(F)F)c3)cc2)sc1C(=O)c1c(F)cccc1F [Example G293]
Result: 23%

Task: // query: CCCCN(Cc1ccccc1)C(=O)c1ccc(Nc2nc(N)c(C(=O)c3c(F)cccc3F)s2)cc1 [Example G306]
Result: −17%

Task: // query: CCN(CC)CCN1CCN(C(=O)c2ccc(Nc3nc(N)c(C(=O)c4c(F)cccc4F)s3)cc2)CC1 [Example G374]
Result: −10%

Task: // query: COc1cc(CNC(=O)c2ccc(Nc3nc(N)c(C(=O)c4c(F)cccc4F)s3)cc2)cc(OC)c1OC [Example G234]
Result: 35%

Task: // query: CN(C)CCCN1CCN(C(=O)c2ccc(Nc3nc(N)c(C(=O)c4c(F)cccc4F)s3)cc2)CC1 [Example G357]
Result: −14%

Task: // query: Nc1nc(Nc2ccc(C(=O)Nc3ccccc3CCO)cc2)sc1C(=O)c1c(F)cccc1F [Example G207]
Result: 15%

Task: // query: Nc1nc(Nc2ccc(C(=O)Nc3ccc(O)c(Cl)c3)cc2)sc1C(=O)c1c(F)cccc1F [Example G394]
Result: 35%

Task: // query: Nc1nc(Nc2ccc(C(=O)NCc3ccccc3F)cc2)sc1C(=O)c1c(F)cccc1F [Example G221]
Result: 29%

====

- Tested on: HCT-116 cell line
- ASSAY: Inhibition of cell growth, MTT tetrazolium salt assay
- Type: cell-based
- EXPERIMENTAL PARAMETERS: HCT-116 cells, 0.1 μM compound
Exercise: for every item that follows, state its recorded HCT-116 % Inhibition at 0.1 μM.
Give the value in % but do not write % after it.

Task: // lookup HCT-116 % Inhibition at 0.1 μM for CC[C@H](NC(=O)c1ccc(Nc2nc(N)c(C(=O)c3c(F)cccc3F)s2)cc1)c1ccccc1 [Example G214]
Result: 15

Task: // query: Nc1nc(Nc2ccc(C(=O)NCCc3ccc(Cl)c(Cl)c3)cc2)sc1C(=O)c1c(F)cccc1F [Example G211]
Result: 13

Task: // query: Nc1nc(Nc2ccc(C(=O)N(CCCO)Cc3ccccn3)cc2)sc1C(=O)c1c(F)cccc1F [Example G243]
Result: 31

Task: // query: Nc1nc(Nc2ccc(C(=O)NCCCCCCO)cc2)sc1C(=O)c1c(F)cccc1F [Example G358]
Result: 21

Task: // query: Nc1nc(Nc2ccc(C(=O)NCc3ccc(Cl)cc3Cl)cc2)sc1C(=O)c1c(F)cccc1F [Example G236]
Result: 16

Task: // query: CCOC(CNC(=O)c1ccc(Nc2nc(N)c(C(=O)c3c(F)cccc3F)s2)cc1)OCC [Example G344]
Result: 24

Task: // query: N#CCc1ccc(NC(=O)c2ccc(Nc3nc(N)c(C(=O)c4c(F)cccc4F)s3)cc2)cc1 [Example G321]
Result: 11

Task: // query: CCCCC(CO)NC(=O)c1ccc(Nc2nc(N)c(C(=O)c3c(F)cccc3F)s2)cc1 (centres unmarked) [Example G329]
Result: 9

====

- Tested on: HCT-116 cell line
- ASSAY: Inhibition of cell growth, MTT tetrazolium salt assay
- Type: cell-based
- EXPERIMENTAL PARAMETERS: HCT-116, at 0.1 μM
PROPERTY LABEL: HCT-116 % Inhibition at 0.1 μM (%)
Give the value in % but do not write % after it.

Task: // lookup HCT-116 % Inhibition at 0.1 μM for CCCC(C)NC(=O)c1ccc(Nc2nc(N)c(C(=O)c3c(F)cccc3F)s2)cc1 (stereo not drawn)
Result: 0

Task: // query: CC(C)C(CO)NC(=O)c1ccc(Nc2nc(N)c(C(=O)c3c(F)cccc3F)s2)cc1 (stereo not drawn)
Result: 18

Task: // query: CCN1CCCC1CNC(=O)c1ccc(Nc2nc(N)c(C(=O)c3c(F)cccc3F)s2)cc1 (stereo not drawn)
Result: 17
